Just for reference, paper PMC7611434 is where these values come from.

assay: solubility in PBS; type: physicochemical; settings: phosphate-buffered saline
Endpoint Name: solubility

Name the reported solubility value associated with the compound C[C@@H](Oc1cc(-c2cnn(C3CCNCC3)c2)cnc1N)c1c(Cl)ccc(F)c1Cl [crizotinib, reference compound] < 500 µg/mL

* * *

test system: RUMH cells (renal cell carcinoma, c-MET-overexpressing); test: cytotoxicity assay; assay type: cell-based, human; details: read-out: IC50 cytotoxicity; RUMH, 24 h treatment, MTT; 1 % O2 or 21 % O2
Endpoint Name: IC50

Record lookup: for RUMH cells (renal cell carcinoma, c-MET-overexpressing), what IC50 belongs to C[C@@H](Oc1cc(-c2cnn(C3CCNCC3)c2)cnc1NC(=O)OCc1cnc([N+](=O)[O-])n1C)c1c(Cl)ccc(F)c1Cl [prodrug A] ? > 25 µM

* * *

Would you kindly list pIC50 for each of these compounds?
system: H1993 cells (non-small cell lung cancer, c-MET-dependent); experiment: cytotoxicity assay; format: cell-based, human; conditions: Homo sapiens, NCI-H1993, 24 h, read-out: IC50 cytotoxicity
pIC50: −log10 of the molar value.

C[C@@H](Oc1cc(-c2cnn(C3CCNCC3)c2)cnc1N)c1c(Cl)ccc(F)c1Cl [crizotinib, reference compound] ... ~4.70

We now examine a further compound.
Record lookup: for H1993 cells (non-small cell lung cancer, c-MET-dependent), what pIC50 belongs to Cn1c(COP(=O)(NCCBr)NCCBr)cnc1[N+](=O)[O-] [TH-302, reference compound] ? < 4.60

* * *

system: H1993 cells (non-small cell lung cancer, c-MET-dependent); assay: cytotoxicity assay; assay type: cell-based, human; conditions: read-out: IC50 cytotoxicity; H1993, 24 h treatment, MTT; 1 % O2 or 21 % O2
pIC50: −log10 of the molar value.
Endpoint Name: pIC50

Name the reported pIC50 value associated with the compound C[C@@H](Oc1cc(-c2cnn(C3CCNCC3)c2)cnc1NC(=O)OCc1cnc([N+](=O)[O-])n1C)c1c(Cl)ccc(F)c1Cl [prodrug A] < 4.60

* * *

tested on: RUMH cells (renal cell carcinoma, c-MET-overexpressing); assay: cytotoxicity assay; format: cell-based, human; details: Homo sapiens, 24 h, read-out: IC50 cytotoxicity
Endpoint Name: IC50

C[C@@H](Oc1cc(-c2cnn(C3CCNCC3)c2)cnc1N)c1c(Cl)ccc(F)c1Cl [crizotinib, reference compound] ... ~20 µM

Name the reported IC50 value associated with the compound Cn1c(COP(=O)(NCCBr)NCCBr)cnc1[N+](=O)[O-] [TH-302, reference compound] > 25 µM

* * *

test system: H2228 cells (non-small cell lung cancer, ALK-dependent); test: cytotoxicity assay; assay type: cell-based, human; conditions: read-out: IC50 cytotoxicity; H2228, 24 h treatment, MTT; 1 % O2 or 21 % O2
Endpoint Name: IC50

Name the reported IC50 value associated with the compound C[C@@H](Oc1cc(-c2cnn(C3CCNCC3)c2)cnc1NC(=O)OCc1cnc([N+](=O)[O-])n1C)c1c(Cl)ccc(F)c1Cl [prodrug A] > 25 µM
